test: Pulsating bubble surfactometry: minimum surface tension and time to reach it
Format: physicochemical
conditionContext: DLPC (fresh) 0.5; pH 7.12; 25.1 °C; pulse rate 30/min
endpointLabel: Time to Develop (min)

>>> value("CCCCCCCCCCCC(=O)OC[C@H](COP(=O)([O-])OCC[N+](C)(C)C)OC(=O)CCCCCCCCCCC [dlfs7]")
20
